Test: Inhibition of luciferase refolding in rabbit reticulocyte lysate preincubated for 30 mins measured after 1 hr by liquid scintillation counting
READOUT LABEL: pIC50
Would you please state pIC50, meaning minus log10 of the concentration in mol/L, as a bare number?

Some compounds with recorded pIC50:
[[record]]
compound = "Clc1ccccc1C1Oc2ccccc2-c2cc(-c3ccco3)nn21 (stereo not given)"
readout_label = "pIC50"
numeric_readout = 5.06

[[record]]
compound = "c1ccc(Nc2nc(-c3cccs3)cs2)cc1"
readout_label = "pIC50"
numeric_readout = 5.96

[[record]]
compound = "CCOC(=O)c1cccc(NC(=O)COc2ccccc2Cl)c1"
readout_label = "pIC50"
numeric_readout = 6.09

[[record]]
compound = "Clc1ccc(Nc2nc(-c3cccs3)cs2)cc1"
readout_label = "pIC50"
numeric_readout = 5.40


Which pIC50 is listed for CCCCCOC(=O)C1=C(C)NC2(O)c3ccccc3C(=O)C12O (stereo not given) ?
5.37

From: ChEMBL document CHEMBL2169884
